The origin of these recorded values is the supplement of paper PMC4862054.

Measured drug sensitivity score, listed per entry for reference.
system: Hs578T; assay: drug sensitivity score (DSS), CellTox Green (DSS (AUC-based score)); higher = stronger drug effect (viability inhibition or cytotoxicity); extreme values may be limits of the assay; conditions: incubation time: 72 h
Please give the numeric answer without any surrounding text.

> print(dat)
                                   compound  reported.result
1  CC1(COc2ccc3c(c2)ncn3-c2ccc3cccc(N4CCC(N)CC4)c3n2)COC1 [Crenolanib]                0
2  CC(=O)[C@]1(O)Cc2c(O)c3c(c(O)c2[C@@H](O[C@H]2C[C@H](N)[C@H](O)[C@H](C)O2)C1)C(=O)c1ccccc1C3=O [Idarubicin]                0
3  CNC(=O)c1ccccc1Sc1ccc2c(/C=C/c3ccccn3)n[nH]c2c1 [Axitinib]                0
4  Cc1cc(Nc2nc(N[C@@H](C)c3ncc(F)cn3)ncc2Cl)[nH]n1 [AZD1480]             1.75
5  CN[C@@H](C)C(=O)N[C@H]1CN(C(=O)CC(C)C)CC[C@H]2CC[C@@H](C(=O)NC(c3ccccc3)c3ccccc3)N2C1=O [AT-406]                0

Asked: Dear colleague, I am looking for the recorded drug sensitivity score of the following compound: C=CCN(/C=C1/C(=O)O[C@H](COC)[C@@]2(C)C1=C(O)C(=O)C1=C2[C@H](OC(C)=O)C[C@]2(C)C(=O)CC[C@@H]12)CC=C [Sonolisib]
Given back: 0

Asked: Dear colleague, I am looking for the recorded drug sensitivity score of the following compound: CN(Cc1cnc2nc(N)nc(N)c2n1)c1ccc(C(=O)N[C@@H](CCC(=O)O)C(=O)O)cc1 [Methotrexate]
Given back: 7.51

Asked: Dear colleague, I am looking for the recorded drug sensitivity score of the following compound: CN(C)C(=N)NC(=N)N [Metformin]
Given back: 4.84

Asked: Dear colleague, I am looking for the recorded drug sensitivity score of the following compound: COc1cc(Nc2c(C#N)cnc3cc(OCCCN4CCN(C)CC4)c(OC)cc23)c(Cl)cc1Cl [Bosutinib]
Given back: 3.59

Asked: Dear colleague, I am looking for the recorded drug sensitivity score of the following compound: CC(C)(C)c1nc(-c2cccc(NS(=O)(=O)c3c(F)cccc3F)c2F)c(-c2ccnc(N)n2)s1 [Dabrafenib]
Given back: 18.1
